Parameters: species or system mice
protocol conditions: mouse, in vivo, iv, accumulation in the liver
Where a SMILES comes first, the peptide text is derived from it. Side-chain parts run from the residue outwards. [ ]: non-standard residue; d: D form. The star is where a group is joined. NOTA = O=C(O)CN1CCN(CC(=O)O)CCN(CC(=O)*)CC1; dTyr(3-I) = N[C@H](Cc1ccc(O)c(I)c1)C(=O)O; 2Nal = N[C@@H](Cc1ccc2ccccc2c1)C(=O)O; dNMeOrn = CN[C@H](CCCN)C(=O)O; 4Amb = NCc1ccc(C(=O)O)cc1
measurement label: tissue uptake at 1.5 h (%ID/g)
Enter your answer as a number in %ID/g; do not include the unit.

Task: Read off the recorded tissue uptake at 1.5 h for CN1C(=O)[C@@H](Cc2ccc(O)c(I)c2)NC(=O)CNC(=O)[C@H](Cc2ccc3ccccc3c2)NC(=O)[C@H](CCCNC(=N)N)NC(=O)[C@H]1CCCNC(=O)c1ccc(CNC(=O)CN2CCN(CC(=O)O)CCN(CC(=O)O)CC2)cc1 [[^64Cu]NOTA-pentixather, metal not drawn] (cyclo([dTyr(3-I)][dNMeOrn]([4Amb-NOTA])R[2Nal]G))
Result: 7.2

----------
Parameters: species or system mice
protocol conditions: mouse, in vivo, iv, Tumor uptake
Where a SMILES comes first, the peptide text is derived from it. Side-chain parts run from the residue outwards. [ ]: non-standard residue; d: D form. The star is where a group is joined. NOTA = O=C(O)CN1CCN(CC(=O)O)CCN(CC(=O)*)CC1; dTyr(3-I) = N[C@H](Cc1ccc(O)c(I)c1)C(=O)O; 2Nal = N[C@@H](Cc1ccc2ccccc2c1)C(=O)O; dNMeOrn = CN[C@H](CCCN)C(=O)O; 4Amb = NCc1ccc(C(=O)O)cc1
measurement label: tissue uptake at 1.5 h (%ID/g)
Enter your answer as a number in %ID/g; do not include the unit.

Task: Read off the recorded tissue uptake at 1.5 h for CN1C(=O)[C@@H](Cc2ccc(O)c(I)c2)NC(=O)CNC(=O)[C@H](Cc2ccc3ccccc3c2)NC(=O)[C@H](CCCNC(=N)N)NC(=O)[C@H]1CCCNC(=O)c1ccc(CNC(=O)CN2CCN(CC(=O)O)CCN(CC(=O)O)CC2)cc1 [[^64Cu]NOTA-pentixather, metal not drawn] (cyclo([dTyr(3-I)][dNMeOrn]([4Amb-NOTA])R[2Nal]G))
Result: 13.1

----------
Type: physicochemical
protocol conditions: pH 7.4
Where a SMILES comes first, the peptide text is derived from it. Side-chain parts run from the residue outwards. [ ]: non-standard residue; d: D form. The star is where a group is joined. NOTA = O=C(O)CN1CCN(CC(=O)O)CCN(CC(=O)*)CC1; dTyr(3-I) = N[C@H](Cc1ccc(O)c(I)c1)C(=O)O; 2Nal = N[C@@H](Cc1ccc2ccccc2c1)C(=O)O; dNMeOrn = CN[C@H](CCCN)C(=O)O; 4Amb = NCc1ccc(C(=O)O)cc1
measurement label: logP

Task: Read off the recorded logP for CN1C(=O)[C@@H](Cc2ccc(O)c(I)c2)NC(=O)CNC(=O)[C@H](Cc2ccc3ccccc3c2)NC(=O)[C@H](CCCNC(=N)N)NC(=O)[C@H]1CCCNC(=O)c1ccc(CNC(=O)CN2CCN(CC(=O)O)CCN(CC(=O)O)CC2)cc1 [[^64Cu]NOTA-pentixather, metal not drawn] (cyclo([dTyr(3-I)][dNMeOrn]([4Amb-NOTA])R[2Nal]G))
Result: -1.2
